Assay: Multiple-dose PK, 2-hour SC infusion once daily for 14 days, Japanese prostate cancer patients
Format: in vivo, human
Conditions: male, human, in vivo, sc, 0.5 mg/day, Japanese prostate cancer patients, 2-hour SC infusion 0.5 mg/day, Day 14, mean; read-out: T1/2 (converted)
Where a SMILES comes first, the peptide text is derived from it. [ ]: non-standard residue; d: D form. Arg(Me) = CNC(=N)NCCC[C@H](N)C(=O)O; Hyp = O=C(O)[C@@H]1C[C@@H](O)CN1; azaGly = NNC(=O)O
MEASURED ATTRIBUTE: half-life (h)
Expressed in h, but write only the number.

Q: Consider the compound CC(=O)O.CNC(=N)NCCC[C@H](NC(=O)[C@H](CC(C)C)NC(=O)NNC(=O)[C@H](Cc1ccccc1)NC(=O)[C@@H](NC(=O)[C@H](CC(N)=O)NC(=O)[C@@H]1C[C@@H](O)CN1C(=O)[C@@H](Cc1ccc(O)cc1)NC(C)=O)[C@@H](C)O)C(=O)N[C@@H](Cc1c[nH]c2ccccc12)C(N)=O [API-MA] (Ac-[dY][Hyp]NTF[azaGly]L[Arg(Me)]W-NH2) and give its recorded half-life.
A: 3.5

---

Test: Single dose PK, phase 1, healthy Japanese men
Format: in vivo, human
Settings: male, human, plasma, sc, 0.001 mg, single SC bolus 0.001 mg, mean
Where a SMILES comes first, the peptide text is derived from it. [ ]: non-standard residue; d: D form. Arg(Me) = CNC(=N)NCCC[C@H](N)C(=O)O; Hyp = O=C(O)[C@@H]1C[C@@H](O)CN1; azaGly = NNC(=O)O
MEASURED ATTRIBUTE: AUC(0-inf) (ng·h/mL)
Expressed in ng·h/mL, but write only the number.

Q: Consider the molecule CC(=O)O.CNC(=N)NCCC[C@H](NC(=O)[C@H](CC(C)C)NC(=O)NNC(=O)[C@H](Cc1ccccc1)NC(=O)[C@@H](NC(=O)[C@H](CC(N)=O)NC(=O)[C@@H]1C[C@@H](O)CN1C(=O)[C@@H](Cc1ccc(O)cc1)NC(C)=O)[C@@H](C)O)C(=O)N[C@@H](Cc1c[nH]c2ccccc12)C(N)=O [API-MA] (Ac-[dY][Hyp]NTF[azaGly]L[Arg(Me)]W-NH2) and give its recorded AUC(0-inf).
A: 0.0541

---

Experiment: Single dose PK, phase 1, healthy Japanese men
Type: in vivo, human
Conditions: male, human, plasma, sc, 0.1 mg, single SC bolus 0.1 mg, mean, read-out: T½ (converted)
Where a SMILES comes first, the peptide text is derived from it. [ ]: non-standard residue; d: D form. Arg(Me) = CNC(=N)NCCC[C@H](N)C(=O)O; Hyp = O=C(O)[C@@H]1C[C@@H](O)CN1; azaGly = NNC(=O)O
MEASURED ATTRIBUTE: half-life (h)
Expressed in h, but write only the number.

Q: Consider the compound CC(=O)O.CNC(=N)NCCC[C@H](NC(=O)[C@H](CC(C)C)NC(=O)NNC(=O)[C@H](Cc1ccccc1)NC(=O)[C@@H](NC(=O)[C@H](CC(N)=O)NC(=O)[C@@H]1C[C@@H](O)CN1C(=O)[C@@H](Cc1ccc(O)cc1)NC(C)=O)[C@@H](C)O)C(=O)N[C@@H](Cc1c[nH]c2ccccc12)C(N)=O [API-MA] (Ac-[dY][Hyp]NTF[azaGly]L[Arg(Me)]W-NH2) and give its recorded half-life.
A: 3.58

---

Assay: Pharmacokinetics in dogs after SC and IV administration
Details: dog, in vivo; dogs, SC 1 mg/kg; read-out: AUC(0-24)
Where a SMILES comes first, the peptide text is derived from it. [ ]: non-standard residue; d: D form. Arg(Me) = CNC(=N)NCCC[C@H](N)C(=O)O; Hyp = O=C(O)[C@@H]1C[C@@H](O)CN1; azaGly = NNC(=O)O
MEASURED ATTRIBUTE: AUC(0-t)

Q: Consider the molecule CC(=O)O.CNC(=N)NCCC[C@H](NC(=O)[C@H](CC(C)C)NC(=O)NNC(=O)[C@H](Cc1ccccc1)NC(=O)[C@@H](NC(=O)[C@H](CC(N)=O)NC(=O)[C@@H]1C[C@@H](O)CN1C(=O)[C@@H](Cc1ccc(O)cc1)NC(C)=O)[C@@H](C)O)C(=O)N[C@@H](Cc1c[nH]c2ccccc12)C(N)=O [API-MA] (Ac-[dY][Hyp]NTF[azaGly]L[Arg(Me)]W-NH2) and give its recorded AUC(0-t).
A: 2600 ng·h/mL

---

Test: Single dose PK, phase 1, healthy Japanese men
Type: in vivo, human
Details: male, human, plasma, sc, 0.01 mg, single SC bolus 0.01 mg, mean
Where a SMILES comes first, the peptide text is derived from it. [ ]: non-standard residue; d: D form. Arg(Me) = CNC(=N)NCCC[C@H](N)C(=O)O; Hyp = O=C(O)[C@@H]1C[C@@H](O)CN1; azaGly = NNC(=O)O
MEASURED ATTRIBUTE: CL/F
Write your answer as a measured quantity: the number, then the unit.

Q: Consider the compound CC(=O)O.CNC(=N)NCCC[C@H](NC(=O)[C@H](CC(C)C)NC(=O)NNC(=O)[C@H](Cc1ccccc1)NC(=O)[C@@H](NC(=O)[C@H](CC(N)=O)NC(=O)[C@@H]1C[C@@H](O)CN1C(=O)[C@@H](Cc1ccc(O)cc1)NC(C)=O)[C@@H](C)O)C(=O)N[C@@H](Cc1c[nH]c2ccccc12)C(N)=O [API-MA] (Ac-[dY][Hyp]NTF[azaGly]L[Arg(Me)]W-NH2) and give its recorded CL/F.
A: 250 mL/min

---

Test: in vitro
Assay type: in vitro ADME, rats, dogs, monkeys, humans
Conditions: rat, dog, monkey, human, plasma
Where a SMILES comes first, the peptide text is derived from it. [ ]: non-standard residue; d: D form. Arg(Me) = CNC(=N)NCCC[C@H](N)C(=O)O; Hyp = O=C(O)[C@@H]1C[C@@H](O)CN1; azaGly = NNC(=O)O
MEASURED ATTRIBUTE: fraction unbound

Q: Consider the compound CNC(=N)NCCC[C@H](NC(=O)[C@H](CC(C)C)NC(=O)NNC(=O)[C@H](Cc1ccccc1)NC(=O)[C@@H](NC(=O)[C@H](CC(N)=O)NC(=O)[C@@H]1C[C@@H](O)CN1C(=O)[C@@H](Cc1ccc(O)cc1)NC(C)=O)[C@@H](C)O)C(=O)N[C@@H](Cc1c[nH]c2ccccc12)C(N)=O [Compound 1] (Ac-[dY][Hyp]NTF[azaGly]L[Arg(Me)]W-NH2) and give its recorded fraction unbound.
A: 0.267 to 0.447

---

Test: Pharmacokinetics in rats after SC and IV administration
Conditions: rat, in vivo, sc, 0.1 mg/kg
Where a SMILES comes first, the peptide text is derived from it. [ ]: non-standard residue; d: D form. Arg(Me) = CNC(=N)NCCC[C@H](N)C(=O)O; Hyp = O=C(O)[C@@H]1C[C@@H](O)CN1; azaGly = NNC(=O)O
MEASURED ATTRIBUTE: Cmax (ng/mL)
Expressed in ng/mL, but write only the number.

Q: Consider the molecule CNC(=N)NCCC[C@H](NC(=O)[C@H](CC(C)C)NC(=O)NNC(=O)[C@H](Cc1ccccc1)NC(=O)[C@@H](NC(=O)[C@H](CC(N)=O)NC(=O)[C@@H]1C[C@@H](O)CN1C(=O)[C@@H](Cc1ccc(O)cc1)NC(C)=O)[C@@H](C)O)C(=O)N[C@@H](Cc1c[nH]c2ccccc12)C(N)=O [Compound 1] (Ac-[dY][Hyp]NTF[azaGly]L[Arg(Me)]W-NH2) and give its recorded Cmax.
A: 90

---

Test: Single dose PK, phase 1, healthy European men
Type: in vivo, human
Details: male, human, plasma, subcutaneous, 1 mg, 2-hour INF 1 mg, read-out: T1/2 (median) (converted)
Where a SMILES comes first, the peptide text is derived from it. [ ]: non-standard residue; d: D form. Arg(Me) = CNC(=N)NCCC[C@H](N)C(=O)O; Hyp = O=C(O)[C@@H]1C[C@@H](O)CN1; azaGly = NNC(=O)O
MEASURED ATTRIBUTE: half-life (h)
Expressed in h, but write only the number.

Q: Consider the molecule CC(=O)O.CNC(=N)NCCC[C@H](NC(=O)[C@H](CC(C)C)NC(=O)NNC(=O)[C@H](Cc1ccccc1)NC(=O)[C@@H](NC(=O)[C@H](CC(N)=O)NC(=O)[C@@H]1C[C@@H](O)CN1C(=O)[C@@H](Cc1ccc(O)cc1)NC(C)=O)[C@@H](C)O)C(=O)N[C@@H](Cc1c[nH]c2ccccc12)C(N)=O [API-MA] (Ac-[dY][Hyp]NTF[azaGly]L[Arg(Me)]W-NH2) and give its recorded half-life.
A: 3.64

---

Assay: Single dose PK, phase 1, healthy European men
Type: in vivo, human
Settings: male, human, plasma, single SC 0.003 mg, geometric mean, read-out: Vz/F
Where a SMILES comes first, the peptide text is derived from it. [ ]: non-standard residue; d: D form. Arg(Me) = CNC(=N)NCCC[C@H](N)C(=O)O; Hyp = O=C(O)[C@@H]1C[C@@H](O)CN1; azaGly = NNC(=O)O
MEASURED ATTRIBUTE: Vd/F (L)
Expressed in L, but write only the number.

Q: Consider the compound CC(=O)O.CNC(=N)NCCC[C@H](NC(=O)[C@H](CC(C)C)NC(=O)NNC(=O)[C@H](Cc1ccccc1)NC(=O)[C@@H](NC(=O)[C@H](CC(N)=O)NC(=O)[C@@H]1C[C@@H](O)CN1C(=O)[C@@H](Cc1ccc(O)cc1)NC(C)=O)[C@@H](C)O)C(=O)N[C@@H](Cc1c[nH]c2ccccc12)C(N)=O [API-MA] (Ac-[dY][Hyp]NTF[azaGly]L[Arg(Me)]W-NH2) and give its recorded Vd/F.
A: 55.9
